# experiment_notes: xn = mol fraction of the nth substance listed
# condition_label: 283.15 K; 100 kPa; Liquid; Falling or rolling sphere viscometry; x1 = 0.25
endpoint_name: viscosity (mPa·s)

{"molecule": "CCCC[N+](CCCC)(CCCC)Cc1ccccc1.[Cl-] [benzyltributylammonium chloride] + OCCOCCOCCO", "result": 738.7}
{"molecule": "C[N+](C)(C)Cc1ccccc1.[Cl-] [trimethylbenzylammonium chloride] + OCCOCCO", "result": 263.4}
{"molecule": "C[N+](C)(C)Cc1ccccc1.[Cl-] [trimethylbenzylammonium chloride] + OCCOCCOCCO", "result": 620.1}
{"molecule": "CCCC[N+](CCCC)(CCCC)Cc1ccccc1.[Cl-] [benzyltributylammonium chloride] + OCCO", "result": 901.4}
{"molecule": "CCCC[N+](CCCC)(CCCC)Cc1ccccc1.[Cl-] [benzyltributylammonium chloride] + OCCOCCO", "result": 961.86}
{"molecule": "C[N+](C)(C)Cc1ccccc1.[Cl-] [trimethylbenzylammonium chloride] + OCCO", "result": 101.9}
